- subject of test: Lipoprotein lipase (Bos taurus)
- measurement notes: Induction of bovine LPL stabilization using intralipid as substrate at 25 uM preincubated for 10 mins with human recombinant ANGPTL4 followed by substrate addition measured after 45 mins relative to control
Activity calls are given as the source filed them. No cut-off for these calls is given here.
measured parameter: Activity

Cc1ccc(NC(=O)c2cccc(N3C(=O)c4ccc(C(=O)O)cc4C3=O)c2N2CCCCC2)cc1 | 13.5%
CCCCCCNc1ccc(N2C(=O)c3ccc(C(=O)O)cc3C2=O)cc1C(=O)Nc1ccc(C)cc1 | 67.2%
COC(=O)c1ccc2c(c1)C(=O)N(c1ccc(N3CCCCC3)c(C(=O)Nc3ccc(C)cc3)c1)C2=O | inactive
CCN(CC)c1ccc(N2C(=O)c3ccc(C(=O)O)cc3C2=O)cc1C(=O)Nc1ccc(C)cc1 | 49.5%

// switching to the query compound
*Q* Given Cc1ccc(NC(=O)c2cc(N3C(=O)c4ccc(N)cc4C3=O)ccc2N2CCCCC2)cc1 , respond with its Activity.
*A* 11.4%

###

- subject of test: Lipoprotein lipase (Bos taurus)
- measurement notes: Induction of bovine LPL stabilization using intralipid as substrate at 12.5 uM preincubated for 10 mins with human recombinant ANGPTL4 followed by substrate addition measured after 45 mins relative to control
Activity calls are given as the source filed them. The rule behind the calls is not given here.
measured parameter: Activity

Use these answered entries as a reference point.
Cc1ccc(NC(=O)c2cccc(N3C(=O)c4ccc(C(=O)O)cc4C3=O)c2N2CCCCC2)cc1 | inactive
CCc1ccc(NC(=O)c2cc(N3C(=O)c4ccc(C(=O)O)cc4C3=O)ccc2N2CCCCC2)cc1 | 36.5%
COCCOCCOc1ccc(N2C(=O)c3ccc(C(=O)O)cc3C2=O)cc1C(=O)Nc1ccc(C)cc1 | inactive
O=C(O)c1ccc2c(c1)C(=O)N(c1ccccc1)C2=O | inactive
CCc1cccc(NC(=O)c2cc(N3C(=O)c4ccc(C(=O)O)cc4C3=O)ccc2N2CCCCC2)c1 | 63.4%

*Q* Using the record for Cc1ccc(NC(=O)c2cc(N3C(=O)c4cccc(C(=O)O)c4C3=O)ccc2N2CCCCC2)cc1 , state its measured Activity.
*A* inactive

*Q* For Cc1cccc(NC(=O)c2cc(N3C(=O)c4ccc(C(=O)O)cc4C3=O)ccc2N2CCCCC2)c1 , write its Activity.
*A* 38.6%

###

- subject of test: UniProt P11151
- Sequence (P11151 whole entry): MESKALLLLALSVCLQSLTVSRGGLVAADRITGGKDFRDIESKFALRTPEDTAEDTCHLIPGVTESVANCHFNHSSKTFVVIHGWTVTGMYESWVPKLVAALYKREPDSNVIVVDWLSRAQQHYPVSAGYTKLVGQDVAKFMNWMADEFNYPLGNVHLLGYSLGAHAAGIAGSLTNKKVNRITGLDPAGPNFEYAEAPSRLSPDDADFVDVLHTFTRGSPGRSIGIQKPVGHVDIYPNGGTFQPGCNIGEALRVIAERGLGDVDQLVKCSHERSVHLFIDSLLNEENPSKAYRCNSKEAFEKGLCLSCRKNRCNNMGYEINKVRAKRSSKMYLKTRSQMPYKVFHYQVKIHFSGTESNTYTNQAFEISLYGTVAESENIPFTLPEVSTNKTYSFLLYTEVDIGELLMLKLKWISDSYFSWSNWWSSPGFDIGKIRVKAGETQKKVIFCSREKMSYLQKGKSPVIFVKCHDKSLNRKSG
- measurement notes: Induction of bovine LPL stabilization using intralipid as substrate at 25 uM preincubated for 10 mins with human recombinant ANGPTL4 followed by substrate addition measured after 45 mins relative to control
Active and inactive are the calls of the source. No cut-off for these calls is given here.
measured parameter: Activity

Cc1ccc(NC(=O)c2cc(N3C(=O)c4ccc(C(=O)O)cc4C3=O)ccc2N2CCCCC2)cc1Cl | 69.8%
Cc1ccc(NC(=O)c2cc(-n3cc4ccc(C(=O)O)cc4n3)ccc2N2CCCCC2)cc1 | 97%
COc1ccc(N2C(=O)c3ccc(C(=O)O)cc3C2=O)cc1C(=O)Nc1ccc(C)cc1 | inactive
Cc1ccc(NC(=O)c2cc(N3C(=O)c4ccc(C(=O)O)cc4C3=O)ccc2Cl)cc1 | inactive
Cc1ccc(NC(=O)c2cc(-n3cc4ccccc4n3)ccc2N2CCCCC2)cc1 | inactive
CCc1cccc(NC(=O)c2cc(N3C(=O)c4ccc(C(=O)O)cc4C3=O)ccc2Nc2ccccc2)c1 | 52.2%

*Q* Please list Activity recorded for the molecule O=C(O)c1ccc2c(c1)C(=O)N(c1ccc(NCc3cccnc3)c(C(=O)NCc3cccnc3)c1)C2=O
*A* inactive

*Q* Report Activity, nothing else, for this molecule: Cc1ccc(NC(=O)c2cc(N3C(=O)c4ccc(Br)cc4C3=O)ccc2N2CCCCC2)cc1
*A* inactive

*Q* Find the measured Activity of Cc1ccc(NC(=O)c2cc(-n3cc4cc(C(=O)O)ccc4n3)ccc2N2CCCCC2)cc1 and report it.
*A* 89.7%

*Q* Return value of Activity for input O=C(O)c1ccc2c(c1)C(=O)N(c1ccccc1)C2=O , no commentary.
*A* inactive

*Q* # return recorded Activity for input CC(C)c1ccc(NC(=O)c2cc(N3C(=O)c4ccc(C(=O)O)cc4C3=O)ccc2Nc2ccccc2)cc1
*A* 52.5%

*Q* Provide measured Activity value, entry: Cc1ccc(NC(=O)c2ccc(N3C(=O)c4ccc(C(=O)O)cc4C3=O)cc2N2CCCCC2)cc1
*A* 14.1%

*Q* Report Activity, nothing else, for this molecule: Cc1ccc(NC(=O)c2cc(N3C(=O)c4ccc(C(N)=O)cc4C3=O)ccc2N2CCCCC2)cc1
*A* 3.5%

*Q* Identify Activity associated with the molecule Cc1ccc(NC(=O)c2cc(N3C(=O)c4ccc(C(=O)O)cc4C3=O)ccc2N2CCN(C)CC2)cc1
*A* inactive
